Test summary: Rodent Pharmacokinetics Studies
Type: in vivo, rat
Conditions: male Han Wistar rats; 1.25 mg/kg orally
Reported metric: p.o. AUC (ng/mL/min)
Numeric answer only, unit ng/mL/min assumed.

Example compounds with recorded p.o. AUC:
Smiles input	Reported metric	Meas value
CC(=O)N1CCC(CS(=O)(=O)c2ccc(-c3ccc(Cl)cc3C#N)cc2)CC1	p.o. AUC	3030
CCC(=O)N1CCC(CS(=O)(=O)c2ccc(-c3ccc(F)cc3F)cc2)CC1	p.o. AUC	1750
CC(=O)N1CCC(CS(=O)(=O)c2ccc(-c3ccc(F)cc3F)cc2C(F)(F)F)CC1	p.o. AUC	3160

Entry CC(=O)N1CCC(CS(=O)(=O)c2ccc(-c3ccc(F)cc3F)cc2)CC1 — recorded p.o. AUC = 2299
